Assay: oral absorption in man, serum concentration after single oral administration
Type: in vivo, human
Settings: human, serum; 2 hours after single oral administration of 500 mg lysine salt (= 303.8 mg bendazac); 6 volunteers; read-out: mean serum concentration
Counter-ions that a name gives are not always drawn.
testReadout: concentration at 2 h (ng/mL)
Note: unit ng/mL is implicit; provide only the numeric part.

Challenge: Looking for the measured concentration at 2 h of O=C(O)COc1nn(Cc2ccccc2)c2ccccc12 [lysine salt of bendazac, (dihydrate)] , can you help?
Response given: 30000

* * *

Experiment: oral absorption in man, serum concentration after single oral administration
Assay type: in vivo, human
Settings: human, serum; 300 mg of bendazac alone, oral, under the same conditions; read-out: serum levels
Source text: These blood levels appeared too low to obtain therapeutic activity.
testReadout: concentration at 2 h (ng/mL)
Note: unit ng/mL is implicit; provide only the numeric part.

Challenge: Looking for the measured concentration at 2 h of `O=C(O)COc1nn(Cc2ccccc2)c2ccccc12` , can you help?
Response given: 8000
